# TESTED SYSTEM: T1, His-tagged P3028 peptide (PGE73) (human)
# T1 construct: albumin-derived peptide, in solution at 0.5 ug/mL; not shown: His-tag
# T1 peptide: VFDEFKPLVEEPQNLIK
# MEASUREMENT NOTES: PEPSCAN ELISA, peptide on card
Threshold check on RAMPO Score: strictly below 500 is Fulfilled; on or above 500 is Not fulfilled.

// known answers, use as guide
BINDER: KKLDTIFVKLSLFTER [SEQ ID NO: 314 KKLDTIFVKLSLFTER]
CATEGORY LABEL: Fulfilled

BINDER: KKLDTFFVKPSLFTER [SEQ ID NO: 338 KKLDTFFVKPSLFTER]
CATEGORY LABEL: Fulfilled

BINDER: KKLDTFFVKLMLFTER [SEQ ID NO: 346 KKLDTFFVKLMLFTER]
CATEGORY LABEL: Not fulfilled

BINDER: KKVDTFFVKLSLFTER [SEQ ID NO: 297 KKVDTFFVKLSLFTER]
CATEGORY LABEL: Fulfilled

BINDER: KKLDTFFVKLSLMTER (also called 30677) [SEQ ID NO: 367 KKLDTFFVKLSLMTER]
CATEGORY LABEL: Not fulfilled

Is RAMPO Score strictly under 500 for the entry KKLDTFFVKLSRFTER [SEQ ID NO: 356 KKLDTFFVKLSRFTER] ? Fulfilled

Is RAMPO Score strictly under 500 for the entry KKNDTFFVKLSLFTER [SEQ ID NO: 292 KKNDTFFVKLSLFTER] ? Fulfilled

Is RAMPO Score strictly under 500 for the entry KKLDTFFVKLSLATER [SEQ ID NO: 361 KKLDTFFVKLSLATER] ? Not fulfilled

Is RAMPO Score strictly under 500 for the entry KKLDTFVVKLSLFTER [SEQ ID NO: 325 KKLDTFVVKLSLFTER] ? Not fulfilled
